- MEASUREMENT PROTOCOL: Pharmacokinetics in plasma of mice (LC-MS/MS)
- CONDITION SET: male, NOD/SCID, mouse, in vivo, ip, 50 mg/kg
MEASUREMENT LABEL: Tmax (h)
Answer format: numeric, h implied, no suffix.

### Prompt Return reported Tmax. Input compound: Cc1sc2c(c1C)C(c1ccc(Cl)cc1)=N[C@@H](CC(=O)O[C@H](C)c1ccc(C(=O)Nc3ccccc3N)cc1)c1nnc(C)n1-2
### Response 1

----------
Here, each record is paired with measured AUC(0-t) data.
- MEASUREMENT PROTOCOL: Pharmacokinetics in plasma of mice (LC-MS/MS)
- CONDITION SET: male, NOD/SCID, mouse, in vivo, ip; mice, single i.p. 50 mg/kg, plasma; read-out: AUClast
Answer format: numeric, ng·h/mL implied, no suffix.

Cc1sc2c(c1C)C(c1ccc(Cl)cc1)=N[C@@H](CC(=O)OC(C)(C)C)c1nnc(C)n1-2 [(+)-JQ1, reference compound] :: 78000

Attention now shifts to the item below.
### Prompt Return reported AUC(0-t). Input compound: O=C(CCCCCCC(=O)Nc1ccccc1)NO [SAHA, suberoylanilide hydroxamic acid, reference compound]
### Response 12000

----------
- MEASUREMENT PROTOCOL: Pharmacokinetics in plasma of mice (LC-MS/MS)
- CONDITION SET: male, NOD/SCID, mouse, in vivo, ip, 50 mg/kg
MEASUREMENT LABEL: half-life
Answer by giving the amount and then stating its unit.

### Prompt Return reported half-life. Input compound: Cc1sc2c(c1C)C(c1ccc(Cl)cc1)=N[C@@H](CC(=O)O[C@H](C)c1ccc(C(=O)Nc3ccccc3N)cc1)c1nnc(C)n1-2 [009P1]
### Response 1.66 h

----------
- MEASUREMENT PROTOCOL: Pharmacokinetics in plasma of mice (LC-MS/MS)
- CONDITION SET: male, NOD/SCID, mouse, in vivo, ip; mice, single i.p. 50 mg/kg, plasma; read-out: t1/2 (converted)
MEASUREMENT LABEL: half-life (h)
Answer format: numeric, h implied, no suffix.

O=C(CCCCCCC(=O)Nc1ccccc1)NO [SAHA, suberoylanilide hydroxamic acid, reference compound] :: 0.72

Attention now shifts to the item below.
### Prompt Return reported half-life. Input molecule: Cc1sc2c(c1C)C(c1ccc(Cl)cc1)=N[C@@H](CC(=O)OC(C)(C)C)c1nnc(C)n1-2 [(+)-JQ1, reference compound]
### Response 2.27

----------
- System: BCBL-1 cells
- MEASUREMENT PROTOCOL: RNA-Sequencing of compound-treated vs vehicle-treated cells
- Assay type: cell-based, human
- CONDITION SET: gene expression, treated vs vehicle BCBL-1 cells
Here, each record is paired with measured Ratio, LGALS9B data.
Write the number on its own, no unit after it.

Cc1sc2c(c1C)C(c1ccc(Cl)cc1)=N[C@@H](CC(=O)OC(C)(C)C)c1nnc(C)n1-2 [(+)-JQ1, reference compound] :: 0.04587
O=C(CCCCCCC(=O)Nc1ccccc1)NO [SAHA, suberoylanilide hydroxamic acid, reference compound] :: 0.3605
Cc1sc2c(c1C)C(c1ccc(Cl)cc1)=N[C@@H](CC(=O)O[C@@H](C)c1ccc(C(=O)Nc3ccccc3N)cc1)c1nnc(C)n1-2 [009P2] :: 0.03508

Attention now shifts to the item below.
### Prompt Return reported Ratio, LGALS9B. Input compound: Cc1sc2c(c1C)C(c1ccc(Cl)cc1)=N[C@@H](CC(=O)O[C@H](C)c1ccc(C(=O)Nc3ccccc3N)cc1)c1nnc(C)n1-2 [009P1]
### Response 0.03812

----------
Here, each record is paired with measured CC50 at 72 h data.
- MEASUREMENT PROTOCOL: WST-1 cytotoxicity assay, BJAB (KSHV negative lymphoma)
- Assay type: cell-based
- CONDITION SET: human
Answer format: numeric, nM implied, no suffix.

### Prompt Return reported CC50 at 72 h. Input compound: Nc1ccccc1NC(=O)c1ccc(CNC(=O)OCc2cccnc2)cc1 [Entinostat, reference compound]
### Response 420

### Prompt Return reported CC50 at 72 h. Input compound: Cc1sc2c(c1C)C(c1ccc(Cl)cc1)=N[C@@H](CC(=O)OC(C)c1ccc(C(=O)Nc3ccccc3N)cc1)c1nnc(C)n1-2 (some centres unmarked)
### Response 1320

----------
- MEASUREMENT PROTOCOL: WST-1 cytotoxicity assay, BL-41 (KSHV negative lymphoma)
- Assay type: cell-based
- CONDITION SET: human; 50% cytotoxic concentration, 72 h, WST-1; read-out: KSHV negative lymphomas CC50, BL-41
MEASUREMENT LABEL: CC50 at 72 h (µM)
Answer format: numeric, µM implied, no suffix.

O=C(CCCCCCC(=O)Nc1ccccc1)NO [SAHA, suberoylanilide hydroxamic acid, reference compound] :: 3.94

Attention now shifts to the item below.
### Prompt Return reported CC50 at 72 h. Input compound: Cc1sc2c(c1C)C(c1ccc(Cl)cc1)=N[C@@H](CC(=O)OC(C)(C)C)c1nnc(C)n1-2 [(+)-JQ1, reference compound]
### Response 0.68

----------
- MEASUREMENT PROTOCOL: Pharmacokinetics in plasma of mice (LC-MS/MS)
- CONDITION SET: male, NOD/SCID, mouse, in vivo, po, 50 mg/kg
MEASUREMENT LABEL: Cmax (ng/mL)
Answer format: numeric, ng/mL implied, no suffix.

### Prompt Return reported Cmax. Input compound: Cc1sc2c(c1C)C(c1ccc(Cl)cc1)=N[C@@H](CC(=O)O[C@H](C)c1ccc(C(=O)Nc3ccccc3N)cc1)c1nnc(C)n1-2 [009P1]
### Response 11500

----------
- MEASUREMENT PROTOCOL: Pharmacokinetics in plasma of mice (LC-MS/MS)
- CONDITION SET: male, NOD/SCID, mouse, in vivo, po, 50 mg/kg
MEASUREMENT LABEL: Tmax
Answer by giving the amount and then stating its unit.

### Prompt Return reported Tmax. Input compound: Cc1sc2c(c1C)C(c1ccc(Cl)cc1)=N[C@@H](CC(=O)O[C@H](C)c1ccc(C(=O)Nc3ccccc3N)cc1)c1nnc(C)n1-2
### Response 30 min

----------
- MEASUREMENT PROTOCOL: Pharmacokinetics in plasma of mice (LC-MS/MS)
- CONDITION SET: male, NOD/SCID, mouse, in vivo, ip; mice, single i.p. 50 mg/kg, plasma; read-out: Cmax
MEASUREMENT LABEL: Cmax (ng/mL)
Answer format: numeric, ng/mL implied, no suffix.

O=C(CCCCCCC(=O)Nc1ccccc1)NO [SAHA, suberoylanilide hydroxamic acid, reference compound] :: 16600

### Prompt Return reported Cmax. Input compound: Cc1sc2c(c1C)C(c1ccc(Cl)cc1)=N[C@@H](CC(=O)OC(C)(C)C)c1nnc(C)n1-2 [(+)-JQ1, reference compound]
### Response 28700

----------
- MEASUREMENT PROTOCOL: Pharmacokinetics in plasma of mice (LC-MS/MS)
- CONDITION SET: male, NOD/SCID, mouse, in vivo, po, 50 mg/kg
MEASUREMENT LABEL: half-life

### Prompt Return reported half-life. Input compound: Cc1sc2c(c1C)C(c1ccc(Cl)cc1)=N[C@@H](CC(=O)O[C@H](C)c1ccc(C(=O)Nc3ccccc3N)cc1)c1nnc(C)n1-2
### Response 1.12 h

----------
- MEASUREMENT PROTOCOL: WST-1 cytotoxicity assay, BL-41 (KSHV negative lymphoma)
- Format: cell-based
- CONDITION SET: human
MEASUREMENT LABEL: CC50 at 72 h (nM)
Answer format: numeric, nM implied, no suffix.

Nc1ccccc1NC(=O)c1ccc(CNC(=O)OCc2cccnc2)cc1 [Entinostat, reference compound] :: 570

### Prompt Return reported CC50 at 72 h. Input compound: Cc1sc2c(c1C)C(c1ccc(Cl)cc1)=N[C@@H](CC(=O)OC(C)c1ccc(C(=O)Nc3ccccc3N)cc1)c1nnc(C)n1-2 (some centres unmarked)
### Response 3370

----------
- System: BCBL-1
- MEASUREMENT PROTOCOL: WST-1 cytotoxicity assay, BCBL-1 (KSHV+ PEL)
- Assay type: cell-based
- CONDITION SET: BCBL1, 72 h, read-out: CC50, BCBL-1
Each record is given yes (1) if its reported CC50 is strictly below 200 nM. Records at or above 200 nM are given no (0).

Observe how each entry below is paired with its result.
Cc1sc2c(c1C)C(c1ccc(Cl)cc1)=N[C@@H](CC(=O)O[C@H](C)c1ccc(C(=O)Nc3ccccc3N)cc1)c1nnc(C)n1-2 :: yes (1)
Cc1sc2c(c1C)C(c1ccc(Cl)cc1)=N[C@H](CC(=O)O[C@@H](C)c1ccc(C(=O)Nc3ccccc3N)cc1)c1nnc(C)n1-2 :: no (0)
COC(=O)c1ccc([C@H](C)OC(=O)C[C@@H]2N=C(c3ccc(Cl)cc3)c3c(sc(C)c3C)-n3c(C)nnc32)cc1 :: yes (1)
Cc1sc2c(c1C)C(c1ccc(Cl)cc1)=N[C@@H](CC(=O)O[C@@H](C)c1ccc(C(=O)Nc3ccccc3N)cc1)c1nnc(C)n1-2 :: yes (1)
COC(=O)c1ccc([C@@H](C)OC(=O)C[C@@H]2N=C(c3ccc(Cl)cc3)c3c(sc(C)c3C)-n3c(C)nnc32)cc1 :: no (0)

### Prompt Hi there! Is CC50 for Cc1sc2c(c1C)C(c1ccc(Cl)cc1)=N[C@H](CC(=O)O[C@H](C)c1ccc(C(=O)Nc3ccccc3N)cc1)c1nnc(C)n1-2 below 200 nM, do you know?
### Response no (0)

Measured values drawn from paper PMC9879403 for this set.
